Target: hNav1.8 (Homo sapiens, UniProt Q9Y5Y9)
Sequence (Q9Y5Y9 whole entry): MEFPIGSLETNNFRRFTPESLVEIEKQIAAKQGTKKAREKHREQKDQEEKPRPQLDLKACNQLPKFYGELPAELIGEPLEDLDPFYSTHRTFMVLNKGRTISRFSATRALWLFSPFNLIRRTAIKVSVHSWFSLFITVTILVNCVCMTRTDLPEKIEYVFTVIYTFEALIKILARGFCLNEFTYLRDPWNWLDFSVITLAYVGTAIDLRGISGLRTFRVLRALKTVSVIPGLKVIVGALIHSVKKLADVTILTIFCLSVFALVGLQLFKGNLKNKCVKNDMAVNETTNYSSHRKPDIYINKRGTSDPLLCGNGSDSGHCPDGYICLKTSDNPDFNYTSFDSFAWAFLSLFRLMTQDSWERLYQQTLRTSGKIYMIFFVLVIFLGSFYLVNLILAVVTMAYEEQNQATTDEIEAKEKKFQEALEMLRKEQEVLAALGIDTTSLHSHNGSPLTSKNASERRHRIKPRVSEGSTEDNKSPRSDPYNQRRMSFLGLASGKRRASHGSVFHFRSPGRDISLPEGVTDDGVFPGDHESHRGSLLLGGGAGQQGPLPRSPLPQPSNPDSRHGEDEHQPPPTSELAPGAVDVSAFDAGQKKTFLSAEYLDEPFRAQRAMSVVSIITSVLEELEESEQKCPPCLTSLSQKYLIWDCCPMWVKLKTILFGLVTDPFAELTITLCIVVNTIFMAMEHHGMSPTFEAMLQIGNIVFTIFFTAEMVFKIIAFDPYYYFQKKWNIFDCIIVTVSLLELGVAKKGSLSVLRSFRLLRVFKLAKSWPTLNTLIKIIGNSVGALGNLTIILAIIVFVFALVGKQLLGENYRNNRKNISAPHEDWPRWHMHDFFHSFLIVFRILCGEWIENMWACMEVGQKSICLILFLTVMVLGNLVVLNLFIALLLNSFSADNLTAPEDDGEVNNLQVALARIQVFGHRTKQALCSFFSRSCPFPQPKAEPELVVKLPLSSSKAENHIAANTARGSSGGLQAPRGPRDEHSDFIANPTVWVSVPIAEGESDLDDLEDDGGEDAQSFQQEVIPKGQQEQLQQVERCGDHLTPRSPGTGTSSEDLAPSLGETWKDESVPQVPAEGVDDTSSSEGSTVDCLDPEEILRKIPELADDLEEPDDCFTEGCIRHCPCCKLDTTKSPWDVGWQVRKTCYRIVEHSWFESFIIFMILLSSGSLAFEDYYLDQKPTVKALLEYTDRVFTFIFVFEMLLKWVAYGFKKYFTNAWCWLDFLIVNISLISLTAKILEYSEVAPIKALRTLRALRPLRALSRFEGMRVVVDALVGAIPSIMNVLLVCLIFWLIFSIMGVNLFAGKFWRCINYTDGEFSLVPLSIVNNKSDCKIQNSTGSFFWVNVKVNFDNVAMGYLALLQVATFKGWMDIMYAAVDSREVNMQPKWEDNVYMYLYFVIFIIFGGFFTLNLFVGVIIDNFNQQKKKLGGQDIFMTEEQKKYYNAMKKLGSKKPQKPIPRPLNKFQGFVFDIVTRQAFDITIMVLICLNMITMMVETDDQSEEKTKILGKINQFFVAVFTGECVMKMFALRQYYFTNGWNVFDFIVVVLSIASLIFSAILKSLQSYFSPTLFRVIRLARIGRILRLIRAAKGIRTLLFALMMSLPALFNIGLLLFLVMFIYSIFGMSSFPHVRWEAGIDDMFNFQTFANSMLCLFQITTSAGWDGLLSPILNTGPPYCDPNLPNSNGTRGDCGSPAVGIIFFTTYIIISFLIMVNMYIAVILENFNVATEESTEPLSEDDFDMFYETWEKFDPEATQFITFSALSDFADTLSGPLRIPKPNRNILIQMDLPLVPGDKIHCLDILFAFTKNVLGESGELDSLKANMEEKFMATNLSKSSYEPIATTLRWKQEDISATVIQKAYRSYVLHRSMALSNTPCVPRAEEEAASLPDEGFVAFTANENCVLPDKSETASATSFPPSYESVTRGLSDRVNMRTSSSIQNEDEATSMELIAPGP
Test: Nav1.8 manual patch clamp test
Conditions: CHO cells stably expressing human Nav1.8; whole-cell patch clamp, half-inactivated state; read-out: Inhibitory activity (IC50) against hNav1.8
MEASURED_METRIC: IC50

Before answering, review these 2 worked examples.
{"COMPOUND": "COc1c(C2C(C(=O)Nc3ccnc(S(N)(=O)=O)c3)SC(C)(C(F)(F)F)C2C)ccc(F)c1F (stereo not drawn) [Mixture of compounds 5-3a and 5-3b]", "TEST_SYSTEM": "hNav1.8 (Homo sapiens, UniProt Q9Y5Y9)", "IC50": "< 1 nM"}
{"COMPOUND": "COc1c([C@H]2[C@H](C(=O)Nc3ccnc(C(N)=O)c3)S[C@@](C)(C(F)(F)F)[C@H]2C)ccc(F)c1F [Compound 1-2a]", "TEST_SYSTEM": "hNav1.8 (Homo sapiens, UniProt Q9Y5Y9)", "IC50": "< 0.1 nM"}

Now for the compound whose IC50 we want.
Item COc1c([C@H]2[C@H](C(=O)Nc3cccc(S(C)(=O)=O)c3)S[C@@](C)(C(F)(F)F)[C@H]2C)ccc(F)c1F [Compound 22-1a] has what recorded IC50? < 0.1 nM

---

Test: Pharmacokinetic test in mice
Format: in vivo
Details: C57, mouse, PO 30 mg/kg, plasma
As shown below, each of these molecules has a reported AUC(0-t) value.
API: value field is a number in ng·h/mL; no unit string.

{"MOLECULE": "COc1c(C2CC(C)(C(F)(F)F)SC2C(=O)Nc2ccnc(C(N)=O)c2)ccc(F)c1F (single isomer, unassigned)", "UNIT_INFO": "ng·h/mL", "AUC(0-t)": 61600}

Now for the molecule whose AUC(0-t) we want.
Item COc1c([C@H]2[C@H](C(=O)Nc3ccnc(P(C)(C)=O)c3)S[C@@](C)(C(F)(F)F)[C@H]2C)ccc(F)c1F has what recorded AUC(0-t)? 65100

---

Biological target: hNav1.8 (Homo sapiens, UniProt Q9Y5Y9)
Assay: Nav1.8 manual patch clamp test
Conditions: CHO cells stably expressing human Nav1.8; whole-cell patch clamp, half-inactivated state; read-out: Inhibitory activity (IC50) against hNav1.8
pIC50: −log10 of the molar value.
As shown below, each of these compounds has a reported pIC50 value.

Before answering, review these 2 worked examples.
{"COMPOUND": "C[C@H]1[C@@H](c2ccc(F)c3c2OCC3(C)C)[C@H](C(=O)Nc2ccnc(C(N)=O)c2)S[C@@]1(C)C(F)(F)F [Mixture of compounds 76-8a and 76-8b]", "TEST_SYSTEM": "hNav1.8 (Homo sapiens, UniProt Q9Y5Y9)", "MEASURED_METRIC": "pIC50", "RESULT": "> 9.00"}
{"COMPOUND": "COc1c(C2C(C(=O)Nc3ccnc(C(N)=O)c3)SC(C)(C(F)(F)F)C2C)ccc(F)c1F (stereo not drawn)", "TEST_SYSTEM": "hNav1.8 (Homo sapiens, UniProt Q9Y5Y9)", "MEASURED_METRIC": "pIC50", "RESULT": "> 10.00"}

Now for the compound whose pIC50 we want.
Item [2H]C([2H])([2H])Oc1c([C@H]2[C@H](C(=O)Nc3ccnc(C(N)=O)c3)S[C@@](C)(C(F)(F)F)[C@H]2C)ccc(F)c1F [Mixture of compounds 35-8a and 35-8b] has what recorded pIC50? > 10.00

---

Biological target: hNav1.8 (Homo sapiens)
Experiment: Nav1.8 manual patch clamp test
Conditions: CHO cells stably expressing human Nav1.8; whole-cell patch clamp, half-inactivated state; read-out: Inhibitory activity (IC50) against hNav1.8
pIC50: −log10 of the molar value.
MEASURED_METRIC: pIC50

Before answering, review these 5 worked examples.
{"COMPOUND": "COc1c([C@H]2[C@H](C(=O)Nc3ccc(F)c(S(C)(=N)=O)c3)S[C@@](C)(C(F)(F)F)[C@H]2C)ccc(F)c1F (stereo partly drawn)", "pIC50": "> 10.00"}
{"COMPOUND": "C[C@H]1[C@@H](c2ccc(F)c3c2CCC3)[C@H](C(=O)Nc2ccc(F)c(C(N)=O)c2)S[C@@]1(C)C(F)(F)F", "pIC50": "> 10.00"}
{"COMPOUND": "C[C@H]1[C@@H](c2ccc(F)c3c2CCC3)[C@H](C(=O)Nc2ccc(F)c(S(C)(=N)=O)c2)S[C@@]1(C)C(F)(F)F (stereo partly drawn)", "pIC50": "> 10.00"}
{"COMPOUND": "COc1c([C@H]2[C@H](C(=O)Nc3ccc(F)c(C(=O)O)c3)S[C@@](C)(C(F)(F)F)[C@H]2C)ccc(F)c1F", "pIC50": "> 9.00"}
{"COMPOUND": "COc1c([C@@H]2C[C@](C)(C(F)(F)F)S[C@H]2C(=O)Nc2ccc(F)c(C(N)=O)c2)ccc(F)c1F (single isomer, unassigned)", "pIC50": "> 10.00"}

Now for the compound whose pIC50 we want.
What reported pIC50 corresponds to COc1c([C@H]2[C@H](C(=O)Nc3cccc(S(N)(=O)=O)c3)S[C@@](C)(C(F)(F)F)[C@H]2C)ccc(F)c1F on hNav1.8 (Homo sapiens)? > 10.00

---

As shown below, each of these molecules has a reported pIC50 value.
Molecular target: hNav1.8 (Homo sapiens, UniProt Q9Y5Y9)
Assay: Nav1.8 manual patch clamp test
Settings: CHO cells stably expressing human Nav1.8; whole-cell patch clamp, half-inactivated state; read-out: Inhibitory activity (IC50) against hNav1.8
pIC50: −log10 of the molar value.

{"MOLECULE": "C[C@H]1[C@@H](c2ccc(F)c3c2CCC3)[C@H](C(=O)Nc2ccc(F)c(S(C)(=O)=O)c2)S[C@@]1(C)C(F)(F)F", "TEST_SYSTEM": "hNav1.8 (Homo sapiens, UniProt Q9Y5Y9)", "pIC50": "> 10.00"}

Item COc1c(C2CC(C)(C(F)(F)F)SC2C(=O)Nc2cccc(C(N)=O)c2)ccc(F)c1F (single isomer, unassigned) [Compound 32-1P2] has what recorded pIC50? > 9.00

Item COc1c([C@H]2[C@H](C(=O)Nc3ccnc(CO)c3)S[C@@](C)(C(F)(F)F)[C@H]2C)ccc(F)c1F has what recorded pIC50? > 9.00

Item COc1c(C2C(C(=O)Nc3ccnc(S(C)(=O)=O)c3)SC(C)(C(F)(F)F)C2C)ccc(F)c1F (stereo not drawn) [Mixture of compounds 25-1a and 25-1b] has what recorded pIC50? > 10.00

---

Molecular target: CYP3A4 (Homo sapiens, UniProt P08684)
Construct: co-incubated with human liver microsomes and test compounds; from tissue; host or cells: human liver microsomes
Sequence (P08684 whole entry): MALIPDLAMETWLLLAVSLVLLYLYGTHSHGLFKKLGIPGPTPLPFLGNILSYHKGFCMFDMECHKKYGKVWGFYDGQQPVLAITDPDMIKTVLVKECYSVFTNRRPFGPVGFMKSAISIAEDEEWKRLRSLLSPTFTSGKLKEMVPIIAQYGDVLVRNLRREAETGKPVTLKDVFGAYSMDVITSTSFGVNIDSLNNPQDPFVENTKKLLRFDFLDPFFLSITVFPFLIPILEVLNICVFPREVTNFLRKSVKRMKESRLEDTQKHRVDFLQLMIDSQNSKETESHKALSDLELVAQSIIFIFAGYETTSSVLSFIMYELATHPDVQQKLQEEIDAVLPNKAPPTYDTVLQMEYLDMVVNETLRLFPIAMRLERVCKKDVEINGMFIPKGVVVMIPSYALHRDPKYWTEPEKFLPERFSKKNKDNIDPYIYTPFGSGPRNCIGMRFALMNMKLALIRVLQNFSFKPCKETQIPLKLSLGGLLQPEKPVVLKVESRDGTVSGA
Experiment: CYP450 enzyme inhibition test (human liver microsomes)
Format: in vitro ADME
Settings: read-out: IC50 against CYP3A4
MEASURED_METRIC: IC50

Item COc1c([C@H]2[C@H](C(=O)Nc3ccnc(P(C)(C)=O)c3)S[C@@](C)(C(F)(F)F)[C@H]2C)ccc(F)c1F [Compound 58] has what recorded IC50? > 30 µM

---

Molecular target: UniProt Q9Y5Y9
Experiment: Nav1.8 manual patch clamp test
Details: CHO cells stably expressing human Nav1.8; whole-cell patch clamp, half-inactivated state; read-out: Inhibitory activity (IC50) against hNav1.8
MEASURED_METRIC: IC50

{"MOLECULE": "COc1c([C@H]2[C@H](C(=O)Nc3cc[nH]c(=O)c3)S[C@@](C)(C(F)(F)F)[C@H]2C)ccc(F)c1F [Compound 36-2a]", "RESULT": "< 0.1 nM"}

Item COc1c([C@H]2[C@H](C(=O)Nc3cnc(CO)nc3)S[C@@](C)(C(F)(F)F)[C@H]2C)ccc(F)c1F [Compound 19-2a] has what recorded IC50? < 1 nM

Item COc1c(C2CC(C)(C(F)(F)F)SC2C(=O)Nc2ccnc(C(N)=O)c2)ccc(F)c1F (single isomer, unassigned) [Compound 31-1P1] has what recorded IC50? < 0.1 nM
